Just for reference, patent US6350731 is where these values come from.

# TARGET_OF_ASSAY: Rb 65
# ASSAY_PROTOCOL: competitive ELISA on antiserum Rb 65; coated antigen not given
Where no end group is shown, it is not given here.
The following binders are shown together with reported pIC50 values.
pIC50 (log units): -log10 of the concentration in mol/L.

[[record]]
binder = "Ac-ISRRLIDRTNANFLVWPPC [GP10]"
assay_readout = "pIC50"
data_value = 8.52


Now, please, on to the next binder.
Look up pIC50 for this binder: Ac-ISRRLIDRTNANFLC (not fully specified; printed as Ac-25I-S-R-R-L-I-D-R-T-N-A-N-F-L38-C) [GP4]
8.52
